# System: ATP;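 further: ATP exposure 15 min at 22 °C before imaging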
# ASSAY_OVERVIEW: switch fluorescence ratio, 500 uM ATP over buffer (Cy3 cluster intensity, sum of 5 cycles each) (fold (ratio)); higher = stronger signal-on switching upon ATP binding; sequences stand for … in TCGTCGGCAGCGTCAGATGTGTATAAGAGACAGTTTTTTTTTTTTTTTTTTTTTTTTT…TC
# DETAILS: aptamer strand: ATP DNA aptamer (quencher-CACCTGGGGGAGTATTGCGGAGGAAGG + anchor), 100 nM annealed; ATP concentration: 500 uM
METRIC: switch fluorescence ratio

Examples from the recorded data:
Query the reported switch fluorescence ratio for ATP; item: "GAGGGGAAGC"
0.985

What measured switch fluorescence ratio is associated with "TTGATGTTCG" on ATP?
0.976

Value wanted: switch fluorescence ratio (ATP) of entry "ACCGGCCTGG"
1

Item: "GAATGAAAAT" Test system: ATP Read-out: switch fluorescence ratio Value: ?;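 further: ATP exposure 15 min at 22 °C before imaging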
0.997

Find switch fluorescence ratio (ATP) for the entry "TATCAGTAGG"
0.981

For the next question, use this sequence.
switch fluorescence ratio of "GTTTTGATTA" on ATP?
0.973
